- Experiment notes: yeast display, Sf9 membrane polyspecificity reagent, FACS + sequencing; frameworks hold sequencing errors
Quantity kind: polyreactivity (PSR sort gate)

{"Sequence record": "QGQLEESGGGLVQAGGSLRLSCAASGFIFGGNDMGWYRQAPGKERELVAAISKSGGRTYYADSVKGRFTISRDNAKNTVYLQMNSLKPEDTAVYYCAAVPGRTAEDYGEDYWGQGTQVTVSS", "Quantity kind": "polyreactivity (PSR sort gate)", "Result": "high polyreactivity"}
{"Sequence record": "QVQLVESGGGLVQAGGSLRLSCAASGITIVRYAMGWSRQAPGKERELVAAINRSGGSTYYADSVKGRFTISRDNAKNTVYLQMNSLKPEDTAVYYCAARLYGKYDPPGYYYWGQGTQVTVSS", "Quantity kind": "polyreactivity (PSR sort gate)", "Result": "high polyreactivity"}
{"Sequence record": "QVQLVESGGGLVQAGGSLRLSCAASGSTFKRYDMGGYRQAPGKECEFVAGISSRGSRTYYADSVTGRFTISRDNAKNSVYFKMNILKPEDSAVYYCAVSGNHVSPPYGFWGQGTQVNVSS", "Quantity kind": "polyreactivity (PSR sort gate)", "Result": "high polyreactivity"}
